All figures here come from paper PMC12591191.

system-under-test: SIRT6 H133Y (human, UniProt Q8N6T7 1-355, H133Y)
Sequence (Q8N6T7 whole entry H133Y): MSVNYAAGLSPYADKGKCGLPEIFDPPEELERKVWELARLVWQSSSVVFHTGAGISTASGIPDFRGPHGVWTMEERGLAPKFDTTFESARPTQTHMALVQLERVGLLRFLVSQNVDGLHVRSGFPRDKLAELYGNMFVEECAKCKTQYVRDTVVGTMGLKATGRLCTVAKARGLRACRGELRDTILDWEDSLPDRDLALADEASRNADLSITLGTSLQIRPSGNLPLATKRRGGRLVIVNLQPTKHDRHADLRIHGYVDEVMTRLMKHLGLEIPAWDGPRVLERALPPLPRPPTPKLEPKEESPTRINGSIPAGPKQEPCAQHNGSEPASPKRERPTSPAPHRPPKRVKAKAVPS
test-name: BLI
Where no end group is shown, it is not given here. The star is where a group is joined. Biotin = O=C1N[C@H]2[C@H](CS[C@H]2CCCCC(=O)*)N1; Myristoyl = CCCCCCCCCCCCCC(=O)*
assay-readout: pKd
Note on pKd: it is the negative log10 of concentration, concentration in mol/L.

Entry Biotin-KQTARK(Myristoyl)STGGKARRRRR [B-H3K9^Myr-5R (biotin-KQTARK^MyrSTGGKARRRRR)] — recorded pKd = 5.49
